system: T1, human CD24 (human, UniProt P25063 27-59, heavily glycosylated, GPI-anchored (as described in the background))
T1 construct: whole, on cells; Target of all cell-based FACS assays; also called hCD24; Cluster of differentiation 24
T1 chain (looked up): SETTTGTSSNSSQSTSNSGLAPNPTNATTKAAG
measurement-description: FACS, CHOK1-hCD24 cells
Procedure: Sequences of some of antibodies from Table 1 were selected to generate and produce human IgG4 chimeric antibodies. […] The protocol for FACs analysis is described as follows: [0536] a. Digested cells using TrypLE™ Express Enzyme (IX); Centrifuged the harvested cells at 400 g for 5 min and discarding the supernatant. [0537] b. Washed the cells 2 times with cold FACS buffer by centrifuging at 400 g for 5 min and discarding the supernatant. [0538] c. […] Incubate at 40° C. for 1 h. [0539] d. […]
property-label: EC50 (nM)
Express the result in nM but write the number alone.

INSERT INTO results (binder, property_label, test_value) VALUES
  ('81A1F8 (antibody, V domains shown, mouse monoclonal antibody) VH: EVQLQQSGPELVKPGASVKISCKATGYLFTGYYMNWVKQSPEKSLEWIGEINPNTGDTNNNQKFKAKATMTVDRSSSTAYMQLKRLTSEDSAVYYCVRRDYGTSLDYWGQGTTLTVSS VL: DVQITQSPSYLAASPGETITINCRASKSINKYLAWYQEKPGKTNKLLIHSGSTLQSGIPSRFSGSRSGTDFTLTISNLEPEDFAMYYCQQHNEYPITFGAGTKLELK', 'EC50', 1.52);

EC50 in this record for 71A4F12 (antibody, V domains shown, mouse monoclonal antibody) VH: EVQLQQSGPELVKPGASVKIPCKASGYTFTAYNMDWVKQSHGMSLEWIGDINPNNGDTVYNQNFKGKATLTVDKSSSTAYMELRSLTSEDTAVYYCARRGSYYYGSSHYALDFWGQGTSVSVSS VL: DIQMTQITSSLSASLGNRVTISCRASQDIRNYLNWYQQKPDGTVKLLIYYTSRLLSGVPSRFSGSGSGTDYSLTISNLEQEDIATYFCQQDNSLPRTFGGGTRLEIR : 1.72

EC50 in this record for ch56A7E3-hIgG4 (antibody, V domains shown, chimeric) VH: EVQLQQSGPELVKPGASVKIPCKASGYTFTAYNMDWVKQSHGMSLEWIGDINPINGGTIYNQNFEGKATLTVDKSSSTAYLELRSLTSEDTAVYYCARRGSYYYGSSHYALDFWGQGTSVSVSS VL: DIQMTQITSSLSASLGDRVTITCRASQDISNYLNWYQQKPDGTVKLLIYYTSRLLSGVPSRFSGSGSGTDYSLTISNLEQEDIATYFCQQDHTLPRTFGGGTKLEIR : 3.04

EC50 in this record for 110D4G4 (antibody, V domains shown, mouse monoclonal antibody; also called mAb-110D4G4) VH: EVQLQQSGPGLVKPGASVKISCRASGYLFTGYYMNWVKQSPEKSLEWIGEINPNTGDPRYDQKFKAKATLTVDRSSSTAYMHLKSLTSEDSAVYFCARRDYGTSLDYWGQGTTLTVTS VL: DVQITQSPSYLAASPGETITINCRASKSISKYLAWYQEKPGKTNKLLIYSGSTLQSGIPSRFSGSGSGSDFTLTISSLEPEDFAMYYCQQHNEYPLTFGAGTKLELK : 1.52
